target: SARS-CoV-2 nucleocapsid N-terminal domain (N-NTD) (SARS-CoV-2, UniProt P0DTC9 44-180); experiment: BLI; details: protein: recombinant; tags: 6xHis-SUMO removed by SUMO protease; biotinylated for BLI; 15N-labeled for NMR; single strand
Assay readout: pKd
Quick note: pKd means taking -log10 of the concentration in moles per liter.

Asked: Dear colleague, I am looking for the recorded pKd of the following binder: AUAUGGAAGAGCCCUA (ssRNA) [ssRNA-16]
Given back: 5.08
